The measurements presented in this section are drawn from patent US9382254B2.

- system tested: CFTR-R117H (Homo sapiens, UniProt P13569, R117H)
- Sequence (P13569 whole entry R117H): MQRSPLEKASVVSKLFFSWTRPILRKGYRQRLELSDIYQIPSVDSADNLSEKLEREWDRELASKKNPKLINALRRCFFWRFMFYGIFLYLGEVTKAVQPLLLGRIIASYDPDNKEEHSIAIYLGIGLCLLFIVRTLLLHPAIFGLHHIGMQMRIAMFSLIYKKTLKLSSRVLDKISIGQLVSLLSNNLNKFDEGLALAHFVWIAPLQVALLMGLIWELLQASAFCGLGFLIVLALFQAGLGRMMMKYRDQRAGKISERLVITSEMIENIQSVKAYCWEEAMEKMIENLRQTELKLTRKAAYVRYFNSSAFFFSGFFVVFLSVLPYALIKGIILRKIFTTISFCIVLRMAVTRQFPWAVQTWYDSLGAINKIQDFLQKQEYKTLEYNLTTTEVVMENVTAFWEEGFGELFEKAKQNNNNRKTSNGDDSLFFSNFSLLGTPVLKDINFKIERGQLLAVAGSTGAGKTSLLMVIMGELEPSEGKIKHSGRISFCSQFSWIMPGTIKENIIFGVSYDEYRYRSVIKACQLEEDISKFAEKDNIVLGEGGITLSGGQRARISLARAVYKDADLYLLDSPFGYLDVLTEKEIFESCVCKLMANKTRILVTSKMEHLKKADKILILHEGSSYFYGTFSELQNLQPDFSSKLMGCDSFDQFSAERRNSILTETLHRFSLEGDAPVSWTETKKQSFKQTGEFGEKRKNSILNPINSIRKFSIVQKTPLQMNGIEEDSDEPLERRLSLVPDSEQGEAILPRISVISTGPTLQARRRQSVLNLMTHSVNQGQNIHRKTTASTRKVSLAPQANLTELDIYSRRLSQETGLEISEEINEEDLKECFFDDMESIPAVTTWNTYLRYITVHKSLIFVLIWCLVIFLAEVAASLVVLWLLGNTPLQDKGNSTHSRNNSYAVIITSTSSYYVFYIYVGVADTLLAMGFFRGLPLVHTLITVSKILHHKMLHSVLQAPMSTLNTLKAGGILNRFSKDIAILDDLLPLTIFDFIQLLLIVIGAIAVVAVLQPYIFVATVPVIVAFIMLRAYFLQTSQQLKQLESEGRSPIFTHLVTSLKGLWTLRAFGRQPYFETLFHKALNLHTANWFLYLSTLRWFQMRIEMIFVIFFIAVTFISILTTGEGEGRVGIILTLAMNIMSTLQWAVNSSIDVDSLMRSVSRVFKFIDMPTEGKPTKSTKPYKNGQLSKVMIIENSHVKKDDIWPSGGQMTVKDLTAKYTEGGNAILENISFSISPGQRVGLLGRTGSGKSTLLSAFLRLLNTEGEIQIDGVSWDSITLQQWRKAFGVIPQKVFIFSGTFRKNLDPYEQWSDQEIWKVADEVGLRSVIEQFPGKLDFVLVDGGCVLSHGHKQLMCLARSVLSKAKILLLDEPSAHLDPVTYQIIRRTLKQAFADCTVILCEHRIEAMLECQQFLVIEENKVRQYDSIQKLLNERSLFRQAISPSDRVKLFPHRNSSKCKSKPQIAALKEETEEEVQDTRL
- protocol text: YFP-halide influx assay for the CFTR-R117H
endpoint name: EC50 (nM)

CC(C)(O)C(=O)Nc1sc(S(=O)(=O)c2ccc(C(C)(C)C)cn2)cc1C(N)=O ... 676
CC(C)(O)C(=O)Nc1sc(S(=O)(=O)c2ccc(OC(F)F)cc2)cc1C(N)=O ... 144
Cc1ccc(C(F)(F)F)c(S(=O)(=O)c2cc(C(N)=O)c(NC(=O)C(C)(C)O)s2)n1 ... 71.1
COc1cc(S(=O)(=O)c2cc(C(N)=O)c(NC(=O)C(C)(C)O)s2)c(OC(F)F)cc1F ... 273
CC(C)(O)C(=O)Nc1sc(S(=O)(=O)c2cc(F)c(F)cc2OC(F)F)cc1C(N)=O ... 283

a: CC(C)(O)C(=O)Nc1sc(S(=O)(=O)c2ccc(C(F)(F)F)cc2F)cc1C(N)=O
b: CC(O)C(=O)Nc1sc(S(=O)(=O)c2cc(F)ccc2Cl)cc1C(N)=O (centres unmarked)
QUERY: From the recorded data, which exceeds the other in EC50: a or b ? // caller expects the label of the chosen entry
RESULT: b
